Test system: Escherichia coli TOP10;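 note: peptides expressed intracellularly from a pBAD plasmid library in pooled LB shake-flask culture, induced with 0.3% L-arabinose, DNA abundance read by NGS, three biological replicates, DESeq2 with apeglm shrinkage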
Assay: shrunken log2 fold change of peptide-encoding DNA abundance (4.5 h post-induction vs induction); higher = less antimicrobial activity (less host growth inhibition)
Conditions: time post-induction: 4.5 h; library: site-saturation at positions 5, 18, 19, 20
QUANTITY_MEASURED: shrunken log2 fold change
Numbers only.

record_sequence=RRIRRRPPRLPRPRPRPVYNPRP assay_target="Escherichia coli TOP10" quantity_measured="shrunken log2 fold change" reported_result=-0.154
record_sequence=RRIRWRPPRLPRPRPRPIGPPRP assay_target="Escherichia coli TOP10" quantity_measured="shrunken log2 fold change" reported_result=-0.0272
record_sequence=RRIRHRPPRLPRPRPRPWRRPRP assay_target="Escherichia coli TOP10" quantity_measured="shrunken log2 fold change" reported_result=-0.0609
record_sequence=RRIRERPPRLPRPRPRPARNPRP assay_target="Escherichia coli TOP10" quantity_measured="shrunken log2 fold change" reported_result=0.194
record_sequence=RRIRYRPPRLPRPRPRPVNSPRP assay_target="Escherichia coli TOP10" quantity_measured="shrunken log2 fold change" reported_result=-0.0185
record_sequence=RRIRPRPPRLPRPRPRPHCNPRP assay_target="Escherichia coli TOP10" quantity_measured="shrunken log2 fold change" reported_result=-0.52
record_sequence=RRIRARPPRLPRPRPRPEHRPRP assay_target="Escherichia coli TOP10" quantity_measured="shrunken log2 fold change" reported_result=0.0198
record_sequence=RRIRVRPPRLPRPRPRPMDEPRP assay_target="Escherichia coli TOP10" quantity_measured="shrunken log2 fold change" reported_result=0.422
record_sequence=RRIRPRPPRLPRPRPRPVLSPRP assay_target="Escherichia coli TOP10" quantity_measured="shrunken log2 fold change" reported_result=0.076
record_sequence=RRIRHRPPRLPRPRPRPGAIPRP assay_target="Escherichia coli TOP10" quantity_measured="shrunken log2 fold change" reported_result=-0.15

Working through the 8 sequences below one at a time, give shrunken log2 fold change for each.
1. RRIRPRPPRLPRPRPRPTTEPRP
2. RRIRERPPRLPRPRPRPWIAPRP
3. RRIRARPPRLPRPRPRPNYDPRP
4. RRIRCRPPRLPRPRPRPMYCPRP
5. RRIRSRPPRLPRPRPRPVSGPRP
6. RRIRIRPPRLPRPRPRPTSVPRP
7. RRIRGRPPRLPRPRPRPPTIPRP
8. RRIRIRPPRLPRPRPRPGIWPRP

OUTPUT:
0.109
-0.0555
-0.36
-1.66
0.00238
-0.18
0.459
-0.015

State recorded shrunken log2 fold change for all listed sequences.
1. RRIRNRPPRLPRPRPRPGVTPRP
2. RRIRVRPPRLPRPRPRPIYRPRP
3. RRIRRRPPRLPRPRPRPQWFPRP

OUTPUT:
0.0223
-0.491
-0.076

Give measured shrunken log2 fold change for every item shown.
1. RRIRDRPPRLPRPRPRPTLSPRP
2. RRIRYRPPRLPRPRPRPTPGPRP

OUTPUT:
1: 0.262; 2: -0.0705

Please go through the list and note shrunken log2 fold change for each sequence.
1. RRIRIRPPRLPRPRPRPNISPRP
2. RRIRPRPPRLPRPRPRPAYAPRP
3. RRIRDRPPRLPRPRPRPIMCPRP
4. RRIRDRPPRLPRPRPRPMNYPRP
5. RRIRLRPPRLPRPRPRPQKKPRP
6. RRIRSRPPRLPRPRPRPNAMPRP

OUTPUT:
[-0.199, 0.16, -0.0425, 0.185, -0.176, -0.0346]

# map each sequence to its shrunken log2 fold change
1. RRIRMRPPRLPRPRPRPSVCPRP
2. RRIRKRPPRLPRPRPRPHHAPRP

OUTPUT:
1. 0.386
2. -0.066

Please give shrunken log2 fold change, item by item, for the list that follows.
1. RRIRRRPPRLPRPRPRPCWIPRP
2. RRIRPRPPRLPRPRPRPQRVPRP

OUTPUT:
0.063
0.202

Each sequence below has a reported value. Please supply its shrunken log2 fold change.
1. RRIRWRPPRLPRPRPRPSDQPRP
2. RRIRARPPRLPRPRPRPPEYPRP
3. RRIRARPPRLPRPRPRPEAVPRP
4. RRIRARPPRLPRPRPRPAPHPRP
5. RRIRWRPPRLPRPRPRPSVYPRP
6. RRIRARPPRLPRPRPRPWHMPRP
7. RRIRCRPPRLPRPRPRPCDWPRP
8. RRIRGRPPRLPRPRPRPPIHPRP

OUTPUT:
[0.138, 0.386, 1.59, 0.814, 0.0378, -0.361, 0.116, 0.108]

// for each sequence in input: emit shrunken log2 fold change
1. RRIRWRPPRLPRPRPRPENGPRP
2. RRIRERPPRLPRPRPRPIWKPRP
3. RRIRDRPPRLPRPRPRPAVRPRP
4. RRIRYRPPRLPRPRPRPTPVPRP
5. RRIRARPPRLPRPRPRPSEDPRP
6. RRIRSRPPRLPRPRPRPDINPRP

OUTPUT:
[-0.109, -0.644, -0.0321, -0.0457, 0.396, -0.253]

Source listed as the supplement of paper PMC9112550.
